From: patent US20240084003A1

assayedTarget: T1, human CD22-ECD-His protein (human, UniProt P20273 20-687)
T1 construct: Recombinant, from HEK293E cells; also called hCD22-ECD-His; human CD22-His protein; not shown: His tag
T1 sequence: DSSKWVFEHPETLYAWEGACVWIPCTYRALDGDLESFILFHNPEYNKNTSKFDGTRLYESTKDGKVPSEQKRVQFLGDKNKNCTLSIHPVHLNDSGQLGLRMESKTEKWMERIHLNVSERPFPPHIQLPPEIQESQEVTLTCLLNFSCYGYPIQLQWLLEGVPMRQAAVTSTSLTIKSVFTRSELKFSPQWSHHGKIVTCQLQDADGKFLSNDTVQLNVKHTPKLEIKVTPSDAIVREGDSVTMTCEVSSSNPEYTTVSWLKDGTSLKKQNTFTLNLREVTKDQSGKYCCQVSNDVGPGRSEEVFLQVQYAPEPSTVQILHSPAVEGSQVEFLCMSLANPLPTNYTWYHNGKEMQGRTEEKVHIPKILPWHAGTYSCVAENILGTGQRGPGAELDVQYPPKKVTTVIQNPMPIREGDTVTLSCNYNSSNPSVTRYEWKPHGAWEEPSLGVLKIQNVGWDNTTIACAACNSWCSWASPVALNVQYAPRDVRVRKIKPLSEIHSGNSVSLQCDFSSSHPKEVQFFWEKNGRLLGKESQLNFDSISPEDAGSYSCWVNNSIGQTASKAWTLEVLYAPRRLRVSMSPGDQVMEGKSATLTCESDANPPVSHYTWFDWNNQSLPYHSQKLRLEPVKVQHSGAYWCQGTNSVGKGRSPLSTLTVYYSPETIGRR
protocolSummary: SPR (Biacore), antibody captured on Protein A chip, CD22-ECD-His in solution
reportedMetric: kon (M⁻¹ s⁻¹)
Express your answer in M⁻¹ s⁻¹, writing the number without its unit.

Worked set:
>>> quantitativereadout("F2.173.9 (antibody, human IgG1, lambda, V domains shown, Chimeric IgG1 lambda) VH: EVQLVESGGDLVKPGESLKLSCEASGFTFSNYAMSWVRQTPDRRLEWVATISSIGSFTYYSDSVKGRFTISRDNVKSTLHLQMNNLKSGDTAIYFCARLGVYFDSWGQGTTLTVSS VL: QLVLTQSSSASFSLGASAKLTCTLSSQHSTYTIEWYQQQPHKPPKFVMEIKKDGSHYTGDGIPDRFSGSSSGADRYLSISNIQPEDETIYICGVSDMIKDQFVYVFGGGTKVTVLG")
49000
>>> quantitativereadout("F2.127.11 (antibody, human IgG1, lambda, V domains shown, Chimeric IgG1 lambda) VH: QVTLKESGPGILQPSQTLSLTCSFSGFSLSTFGMGVGWIRQPSGKGLEWLAHIWWDDDKHYNPALKSRLTISKDTSRNQVFLKIANVDTADGATYFCARDNWVSSLDYWGQGTSVIVSS VL: QPVITQSSSASFSLGASAELTCTLSSQHSTYTIEWYQQQPLKPPKYVMGLKKDGSHSTGDGIPDRFSGSSSGADRYLSISNIQPEDEAIYICGVSDTIKEQFVYVFGGGTKVTVLG")
226000

We next turn to a different binder, shown below.
Identify kon associated with the binder F2.121.9 (antibody, human IgG1, lambda, V domains shown, Chimeric IgG1 lambda) VH: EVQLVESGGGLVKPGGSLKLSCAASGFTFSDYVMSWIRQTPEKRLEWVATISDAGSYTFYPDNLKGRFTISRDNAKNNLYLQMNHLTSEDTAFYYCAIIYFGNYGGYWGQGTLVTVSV VL: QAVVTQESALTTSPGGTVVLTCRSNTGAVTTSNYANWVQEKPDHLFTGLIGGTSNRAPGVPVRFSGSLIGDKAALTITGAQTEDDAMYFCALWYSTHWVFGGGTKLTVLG
4910
